Biological target: T1, soluble IL-6 receptor (sIL-6R) (human (from the printed accession …, UniProt P08887 20-355))
T1 chain: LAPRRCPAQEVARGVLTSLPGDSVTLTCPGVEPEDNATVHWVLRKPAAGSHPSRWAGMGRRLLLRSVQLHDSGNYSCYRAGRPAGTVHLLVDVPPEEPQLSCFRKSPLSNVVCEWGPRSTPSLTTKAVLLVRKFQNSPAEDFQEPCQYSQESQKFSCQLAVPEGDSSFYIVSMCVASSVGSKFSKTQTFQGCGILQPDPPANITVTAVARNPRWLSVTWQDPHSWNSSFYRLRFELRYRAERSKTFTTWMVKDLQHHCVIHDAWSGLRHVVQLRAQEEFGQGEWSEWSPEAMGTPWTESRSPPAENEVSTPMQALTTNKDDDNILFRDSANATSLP
Test: SPR
Let's look at some binders and their measured pKd.
To interpret pKd, take it as minus log10 of a concentration measured in moles per litre.

Binder	Assay result
tocilizumab-TGN 1:10 (antibody, V domains shown, Tris-GalNAc-PEG5 (TGN) on accessible primary amines (lysines), not site-specific; coupling ratio 1:10; GPR 4.75 for the antibody | Tris-GalNAc-PEG5 (TGN) on accessible primary amines (lysines), not site-specific; coupling ratio 1:10; GPR 4.75 for the antibody) VH: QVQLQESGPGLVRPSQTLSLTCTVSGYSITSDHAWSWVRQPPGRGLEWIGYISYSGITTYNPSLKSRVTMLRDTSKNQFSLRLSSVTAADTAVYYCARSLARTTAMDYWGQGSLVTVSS VL: DIQMTQSPSSLSASVGDRVTITCRASQDISSYLNWYQQKPGKAPKLLIYYTSRLHSGVPSRFSGSGSGTDFTFTISSLQPEDIATYYCQQGNTLPYTFGQGTKVEIK	9.67

Now for another entry.
Q. # input binder: tocilizumab (antibody, V domains shown) VH: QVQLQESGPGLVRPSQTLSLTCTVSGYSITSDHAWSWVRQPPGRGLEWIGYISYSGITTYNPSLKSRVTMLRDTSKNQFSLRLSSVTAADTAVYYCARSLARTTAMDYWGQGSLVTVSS VL: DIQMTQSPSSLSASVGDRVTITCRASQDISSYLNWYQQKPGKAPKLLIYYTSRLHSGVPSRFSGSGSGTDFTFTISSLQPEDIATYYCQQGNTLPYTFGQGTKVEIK ; wanted: its pKd
A. 10.17
